Test system: GFP-14-3-3β
Assay: GFP-14-3-3β co-IP with LC-MS/MS, untreated GFP-14-3-3β versus GFP control (14-3-3 interactome)
Assay type: binding, human
Conditions: untreated vs GFP; LFQ intensities, replicates 1-3

MOLECULE	Difference (log2), untreated vs GFP
HNRNPA0 (protein, UniProt Q13151 1-305, looked up) Heterogeneous nuclear …: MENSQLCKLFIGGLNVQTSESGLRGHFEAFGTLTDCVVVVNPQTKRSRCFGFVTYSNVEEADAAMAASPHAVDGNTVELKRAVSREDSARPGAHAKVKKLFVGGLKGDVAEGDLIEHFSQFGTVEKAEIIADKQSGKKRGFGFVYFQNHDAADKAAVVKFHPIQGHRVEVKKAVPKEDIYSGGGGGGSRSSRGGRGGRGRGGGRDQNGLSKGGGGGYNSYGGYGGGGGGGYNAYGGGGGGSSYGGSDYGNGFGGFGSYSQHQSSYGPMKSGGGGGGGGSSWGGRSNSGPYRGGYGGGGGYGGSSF	3.698
